Attribution: paper PMC4999892

Bridges are numbered along the chain shown (N, C = ends). Where no end group is shown, it is not given here.
Quantity Measured: Unordered content (%)

Sequence Entry: DFKSGKFKGGCMAWSGEKCRRLCKEQGAVSGHCSSNFKCWCEM (disulfide 11-33, 19-39, 23-41 (inferred)) [DtDRS-11]
Units: %
Quantitative Result: 48
//
Sequence Entry: DFLSGKFKGGCMMWSGEKCRRLCKEQGAVSGHCSTNFKCWCEE (disulfide 11-33, 19-39, 23-41 (inferred)) [DtDRS-11d]
Units: %
Quantitative Result: 53
//
Sequence Entry: RDFLSGTFGGPCWAWSGEKCRRLCIEEGHVSGHCSGAMKCWCEG (disulfide 12-34, 20-40, 24-42 (inferred)) [DRS-3-WDB]
Units: %
Quantitative Result: 41
